viability at 24 h, 2.5 µM values by entry
# Assay notes: Toxicity in human HL7702 cells assessed as cell viability at 2.5 umol/L incubated for 24 hrs by MTT assay relative to control
# Assay type: cell-based, L02
# Stated conditions: dose 2.5 µmol/L, read-out: Activity
Recorded endpoint: viability at 24 h, 2.5 µM

{"Compound": "COc1cc(C2Oc3ccc([C@H]4Oc5cc(O)cc(O)c5C(=O)[C@@H]4O)cc3OC2CO)ccc1O (stereo partly drawn)", "Result": "> 90%"}
{"Compound": "O=c1c2cc(O)c(O)cc2oc2cc(O)c([C@@H]3O[C@H](CO)[C@@H](O)[C@H](O)[C@H]3O)c(O)c12", "Result": "> 90%"}
{"Compound": "O=C(/C=C/c1ccc(O)cc1)c1ccc(O)cc1O", "Result": "> 90%"}

---

# Assayed target: Stromelysin-1 (Homo sapiens, UniProt P08254)
# Sequence (P08254 whole entry): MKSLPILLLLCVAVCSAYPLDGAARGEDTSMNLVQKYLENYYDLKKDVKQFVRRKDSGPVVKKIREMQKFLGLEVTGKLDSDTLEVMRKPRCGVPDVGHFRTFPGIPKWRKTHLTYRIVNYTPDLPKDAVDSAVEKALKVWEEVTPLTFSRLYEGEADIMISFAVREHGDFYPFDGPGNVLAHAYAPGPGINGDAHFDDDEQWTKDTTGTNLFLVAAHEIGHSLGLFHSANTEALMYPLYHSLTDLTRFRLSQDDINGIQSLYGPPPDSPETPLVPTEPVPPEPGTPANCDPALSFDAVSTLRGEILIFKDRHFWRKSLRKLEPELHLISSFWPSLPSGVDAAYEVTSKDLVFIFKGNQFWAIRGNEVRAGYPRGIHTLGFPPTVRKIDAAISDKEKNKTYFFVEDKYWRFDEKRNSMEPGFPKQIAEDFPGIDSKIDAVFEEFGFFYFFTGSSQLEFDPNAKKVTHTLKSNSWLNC
# Assay notes: Inhibition of MMP3 in human U2OS cells by peptide microarray-based fluorescence assay
Recorded endpoint: IC50 (µM)

{"Test smiles": "O=C(/C=C/c1ccc(O)cc1)c1ccc(O)cc1O", "Numeric value": 0.081}
